# METHOD: inhibitors of HIV-1 Env-driven cell-cell fusion, primary screen, HeLa-JRFL effector, CEM21 target cells, luciferase (AID 651610)
# CONDITIONS: at 16.7 µM unless noted
Screen size: about 360,000 compounds; about 3,900 (1.1%) were called active.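 How the source made its calls: active means mean replicate inhibition score of at least 50 and every replicate individually at or above 50; inconclusive means only one of the two criteria met; inactive means mean below 50 and not all replicates reaching 50.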 For the sample, actives were picked, then their nearest neighbours and some compounds at random.
Hello, when you answer, please use one of the following outcomes: active, inactive

Completed entries (count: 4):
- O=C(CC1C(=O)NCCN1Cc1ccc(-c2ccccc2)cc1)NCc1ccncc1 (stereo not given): inactive
- C[C@@H]1CN([C@H](C)CO)C(=O)c2cc(N(C)C)ccc2O[C@@H]1CN(C)S(=O)(=O)c1cn(C)cn1: inactive
- CCc1ccccc1NC(=O)CN(c1ccc(OC)cc1OC)S(=O)(=O)c1ccccc1[N+](=O)[O-]: active
- CCN1C(=O)[C@@H]2[C@@H](c3ccc(-c4ccccc4)cc3)N3CCCC[C@@]3(C(=O)OC)[C@@H]2C1=O: inactive

Would you mind telling me which call this test gave CC1CCCN(c2cccc3c2S(=O)(=O)N(Cc2ccc(F)cc2)[C@@H](C)[C@H](c2ccccc2)O3)C1 (stereo not given in full) ? inactive

Would you mind telling me which call this test gave CC(=O)N(C)C[C@H]1Oc2cc(C#Cc3ccccc3F)ccc2S(=O)(=O)N([C@@H](C)CO)C[C@H]1C ? inactive

Would you mind telling me which call this test gave COc1ccc(CN(C)C[C@@H]2OCCCC[C@@H](C)Oc3ccc(NC(=O)Nc4ccc(C(F)(F)F)cc4)cc3C(=O)N([C@H](C)CO)C[C@H]2C)cc1 ? inactive

Would you mind telling me which call this test gave CCCCCCSc1ccc([C@@H]2[C@@H]3C(=O)N(CC)C(=O)[C@@H]3[C@]3(C(=O)OC)CCCCN23)cc1OC ? active

Would you mind telling me which call this test gave Cc1ccc(S(=O)(=O)N[C@H]2CC[C@@H](CC(=O)NCc3ccc(Cl)c(Cl)c3)O[C@H]2CO)cc1 ? inactive

Would you mind telling me which call this test gave CCCNC(=O)N(C)C[C@H]1Oc2ncc(C#Cc3ccncc3)cc2C(=O)N([C@@H](C)CO)C[C@@H]1C ? inactive

Would you mind telling me which call this test gave COc1ccc(NC(=O)Nc2ccc3c(c2)C(=O)N([C@H](C)CO)C[C@H](C)[C@@H](CN(C)Cc2ccc(C(=O)O)cc2)OCCCC[C@H](C)O3)cc1 ? inactive

Would you mind telling me which call this test gave COC(=O)[C@@]12CCCN1[C@H](c1ccc(-c3ccc(F)cc3)c(OC)c1)[C@H]1C(=O)N(C)C(=O)[C@H]12 ? active

Would you mind telling me which call this test gave O=C(NC[C@H]1CC[C@@H]2[C@@H](CN2S(=O)(=O)c2ccccc2F)O1)C1CCCCC1 ? inactive
